measuredMetric: melting point

For orientation, consider the following solved cases.
INSERT INTO assay_data (chemicalstructure, value) VALUES
  ('O=Cc1ccc2noc(-c3cccc(Cl)c3)c2c1', '148 °C'),
  ('CC(=O)c1ccc(C(=O)Nc2ccc(C(C)(C)C)cc2)cc1', '183 to 184 °C'),
  ('Cc1[nH]c(C(=O)NCCc2ccccn2)c(C)c1-c1nc2ccc(Oc3ccccc3)cc2[nH]1', '290 to 293 °C'),
  ('CCOC(=O)C1=C(C)NC(C)=C(C(=O)OCC)C1c1ccc(F)c(Br)c1', '118 to 119 °C'),
  ('CC(C)(C)OC(=O)NCCOc1ccc(OCC2(C)OCCO2)cc1', '80 to 82 °C'),
  ('COc1ccc(S(=O)(=O)NC(=N)CCN2CCOC2=O)cc1', '115 to 118 °C');

From here, focus on the item given below.
Input line: Need melting point, item `CCCn1nc(-c2ccc(OC)cc2)cc(C(=O)NC)c1=O`
Output line: 106 to 107 °C

----------
What melting point was measured for each of the following?

The cases that follow already have their melting point on record.
INSERT INTO results (compound, value) VALUES
  ('O=S(=O)(c1ccc(Cl)cc1)C(c1ccncc1)C1CCOCC1 (centres undefined)', '208 to 209 °C'),
  ('O=C1NCCN1C1CCN(CCC2CS(=O)c3ccccc3O2)CC1 (centres undefined)', '145 °C');

I need melting point for every entry listed below, if you could help.
1. CNC(=O)CC(S)C(CC(C)C)C(=O)NC(Cc1ccc(OC)cc1)C(=O)NC (centres undefined)
2. CC(=O)NCC=C1CCc2ccc3nc(CCCCc4ccccc4)oc3c21
3. CCc1nc(C(=O)c2ccc(Cl)cc2Cl)c(C=O)n1C(CC)CC
4. O=c1ccn(C2OC(CO)C(O)C2Cl)c(=O)[nH]1 (centres undefined)
5. CCCCn1nc2c(N)nc3ccccc3c2c1CC(C)C
6. CSC(=C(C#N)C#N)N1CCc2ccccc2CC1
7. CCC(Oc1cc(C)cc(C)c1)C(=O)NCc1ccccc1 (centres undefined)

Output line:
175 to 190 °C
113 to 115 °C
85 to 86 °C
206 to 207 °C
165 to 166 °C
129 to 132 °C
93 to 94 °C

----------
measuredMetric: melting point

A selection of reference data follows.
INSERT INTO assay_data (molecule, value) VALUES
  ('CC(C)(C)OC(=O)N[C@H](Cc1ccccc1)C(=O)OCCCNc1cccc2c1C(=O)c1ccccc1C2=O', '168 °C'),
  ('CCc1ccc(C(=O)C(=O)O)[nH]1', '126 to 128 °C'),
  ('CC(C)(C)OC(=O)NCCNC(=O)c1ncsc1Br', '108 to 111 °C'),
  ('O=[N+]([O-])N=C1N(Cc2ccc(Cl)nc2)CCN1[N+](=O)[O-]', '158 °C'),
  ('C=CCOc1ccc(C#N)c(OC(C(=O)OC)c2ccccc2C)c1 (racemic)', '98 to 99 °C');

Please supply melting point for each of the following items, keeping them in order.
1. CCCCNc1cc(C#N)cc(S(N)(=O)=O)c1Oc1ccccc1
2. CCCCCCc1ccc(-c2ccc(-c3ncc(C(=O)OCC)c(O)n3)cc2)cc1
3. CCc1nc(-c2cc3[nH]c(=O)c(=O)[nH]c3cc2[N+](=O)[O-])c[nH]1
4. CCOC(=O)c1nc2n(c(=O)c1O)CCC=C2c1ccccc1
5. NC(=O)c1cc(OCCCCNCc2ccccc2)ccc1O
6. Fc1ccc(-c2cc(Cl)nc3c2CCCC3)cc1
7. COC(=O)Nc1nc2ccc(SC[Si](C)(C)C)cc2[nH]1
8. COc1cccc(OC)c1-c1cc(C(=O)NC2(C(=O)O)C3CC4CC(C3)CC2C4)nn1-c1ccc(NC(=O)CCN2CCCCC2)cc1C (stereo not drawn)

Output line:
["217 to 218 °C", "91.6 to 91.9 °C", "249 to 250 °C", "151 °C", "78 to 81 °C", "111 to 112 °C", "189 to 191 °C", "240 °C"]
